Target Entity: Fyn (UniProt P06241)
Sequence (P06241 whole entry, looked up): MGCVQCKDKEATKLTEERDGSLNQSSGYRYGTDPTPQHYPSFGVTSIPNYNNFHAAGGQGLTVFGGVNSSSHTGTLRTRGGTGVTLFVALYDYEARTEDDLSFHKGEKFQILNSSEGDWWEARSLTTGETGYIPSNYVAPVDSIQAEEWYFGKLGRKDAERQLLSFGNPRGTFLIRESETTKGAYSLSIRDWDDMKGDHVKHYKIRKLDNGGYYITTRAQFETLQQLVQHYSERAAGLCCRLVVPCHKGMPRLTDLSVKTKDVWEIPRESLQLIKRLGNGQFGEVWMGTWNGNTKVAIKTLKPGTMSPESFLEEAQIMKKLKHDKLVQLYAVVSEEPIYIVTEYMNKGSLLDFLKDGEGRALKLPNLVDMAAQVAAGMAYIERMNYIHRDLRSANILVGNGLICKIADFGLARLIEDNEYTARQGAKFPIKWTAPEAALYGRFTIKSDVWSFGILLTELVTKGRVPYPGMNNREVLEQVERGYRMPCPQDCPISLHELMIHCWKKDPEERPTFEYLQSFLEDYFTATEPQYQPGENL
Experimental Details: phosphorylation enrichment, bacterial display (enrichment ratio); higher = better substrate or ligand; peptides without Tyr show the background;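 further: 11-residue human phosphosite peptides and single-mutation variants displayed on the E. coli surface, counted by deep sequencing, each peptide's frequency after selection divided by its frequency in the unselected input library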;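 further: frequency after pTyr selection over input frequency; kinase dosed for 20-30% of maximal phosphorylation in three min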
Kindly supply the reported phosphorylation enrichment values for the records listed here.
Give bare numbers.

A selection of reference data follows.
{"Sequence String": "KLNNEYLELNY [MME_Y497]", "Quantitative Readout": 0.633}
{"Sequence String": "KVPRHYDDPGK [FOXG1_Y246]", "Quantitative Readout": 0.443}
{"Sequence String": "MDQAEYQAKIR [DHX58_Y518]", "Quantitative Readout": 0.477}
{"Sequence String": "QGRQTYLPQPA [DDR2_Y813]", "Quantitative Readout": 0.495}
{"Sequence String": "SIKHKYVTALF [KCNH2_Y611_D609H_YF]", "Quantitative Readout": 0.377}
{"Sequence String": "IPVNGYQPVPA [ROR2_Y824_V819I]", "Quantitative Readout": 0.429}
{"Sequence String": "SLIDGYYRLTE [JAK2_Y372_A377E]", "Quantitative Readout": 0.427}
{"Sequence String": "FRTGHYLCNAC [GATA1_Y223_D218Y_YF]", "Quantitative Readout": 0.44}
{"Sequence String": "LYSNAYLSDLA [ALDH1A1_Y119_N121S]", "Quantitative Readout": 3.58}
{"Sequence String": "SADIAYNFRHG [PAH_Y166_F161S_YF]", "Quantitative Readout": 0.416}

Could you tell me phosphorylation enrichment for each of these sequences? They are listed below.
1. LEYNEYFRDLN [HPRT1_Y198_D194E]
2. IIGNGYYFHVF [MYBPC3_Y1135_R1138H]
3. QRALLYEDTLY [UNC13D_Y56_A59T]
4. PQGVSYIYTID [DCX_Y103_R102S]
5. LVPPRYARSEI [PKP2_Y194]
6. SVTCTYSPALF [TP53_Y126_N131Y_YF]
7. LTDRGYSFVTT [ACTA1_Y200_E197D]

1. 1.01
2. 0.349
3. 3.98
4. 10.6
5. 0.631
6. 0.837
7. 0.8

# map each sequence to its phosphorylation enrichment
1. EPSVPYRGMVF [GLI3_Y104_T107M]
2. QFKDKYLAKHN [CASK_Y712_YF]

[0.413, 0.266]

Quick one: give me phosphorylation enrichment for each item below, same order please.
1. KKLAEYGPQGK [CLCA1_Y147_R152K]
2. YADGVYLALEE [DUOX2_Y70_Q71L]
3. DERQPYAHMNG [IGF1R_Y1346]
4. CDDGKYVYVVT [RPS6KA3_Y488_Y483C]
5. PNRILYGDFQQ [MYH7_Y715_R719Q]
6. REENGYNTYAS [FGF10_Y161_I156R]

0.401
2.28
0.438
0.84
4.31
1.21
